# measured_on: T1, Plasmodium falciparum Histidine Rich Protein-2 (Plasmodium falciparum)
# T1 construct: the construct used in the assay is not described; also called Pf.HRP-2
# T1 chain: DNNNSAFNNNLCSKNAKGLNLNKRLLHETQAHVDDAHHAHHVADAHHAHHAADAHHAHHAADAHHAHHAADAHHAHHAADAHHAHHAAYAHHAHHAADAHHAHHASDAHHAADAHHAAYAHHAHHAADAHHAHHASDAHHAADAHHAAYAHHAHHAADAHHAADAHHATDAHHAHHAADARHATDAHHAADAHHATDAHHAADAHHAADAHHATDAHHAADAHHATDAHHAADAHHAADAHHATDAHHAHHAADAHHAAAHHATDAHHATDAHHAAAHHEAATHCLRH
# assay_explanation: assay not described; monoligand cy(GWNVDL)
pEC50: −log10 of the molar value. Ends that are not written are not given here.
measured_quantity: pEC50

INSERT INTO results (binder, measured_quantity, measured_result) VALUES
  ('GWNVDL (not fully specified (bridges); also: cyclic, ring closure not given here, also called cy(GWNVDL)) [cyclic PCC with variable sequence GWNVDL]', 'pEC50', 7.30);

All values here come from patent US20240337665A1.
